- ASSAY_TEXT: xn = mol fraction of the nth substance listed
- CONDITION_DESCRIPTION: 298.15 K; 101.33 kPa; x1 = 0.0999
MEASURED_PROPERTY: viscosity (mPa·s)

# COMPOUND, viscosity [mPa·s]
data = [
    ("C=Cc1ccccc1 + CCCO", 1.594),
    ("CC#N + CO", 0.479),
]

1: C=Cc1ccccc1 + CCCCO
2: C=Cc1ccccc1 + CCCCCCCCC
Lab note: record which item had the higher viscosity, 1 or 2 . # answer = label of selected item 1
(1: 1.971 mPa·s, 2: 0.638 mPa·s)

Each recorded value in this set is attributed to the CheMixHub viscosity set.
